# procedure summary: Individual predicted steady-state exposures
# Type: in vivo, human
# measurement context: human, plasma, oral, 60 mg, Cmax, Mean (SD), ADVANCE EM, 60 mg QD
readout kind: Cmax (ng/mL)
Hi! Could you send only the number? It should be in ng/mL, unit omitted.

Would you mind telling me what Cmax value was observed for C[C@@H]1[C@H](c2c(F)ccc(F)c2F)C[C@H](NC(=O)c2cnc3c(c2)C[C@@]2(C3)C(=O)Nc3ncccc32)C(=O)N1CC(F)(F)F ? 561

---

# procedure summary: Phase 3 population PK model
# Type: in vivo, human
# measurement context: human, plasma, oral
readout kind: Vd/F (L)
Hi! Could you send only the number? It should be in L, unit omitted.

Would you mind telling me what Vd/F value was observed for C[C@@H]1[C@H](c2c(F)ccc(F)c2F)C[C@H](NC(=O)c2cnc3c(c2)C[C@@]2(C3)C(=O)Nc3ncccc32)C(=O)N1CC(F)(F)F ? 86.1

---

# procedure summary: Individual predicted steady-state exposures
# Assay type: in vivo, human
# measurement context: human, plasma, oral, 60 mg, AUC24, Median (5th to 95th percentile), CGP-MD-01 EM, 60 mg BID
readout kind: AUC (ng·h/mL)
Hi! Could you send only the number? It should be in ng·h/mL, unit omitted.

Would you mind telling me what AUC value was observed for C[C@@H]1[C@H](c2c(F)ccc(F)c2F)C[C@H](NC(=O)c2cnc3c(c2)C[C@@]2(C3)C(=O)Nc3ncccc32)C(=O)N1CC(F)(F)F [atogepant, Atogepant] ? 6900

---

# procedure summary: Individual predicted steady-state exposures
# Type: in vivo, human
# measurement context: human, plasma, oral, 30 mg, Cmax, Mean (SD), CGP-MD-01 EM, 30 mg BID
readout kind: Cmax (ng/mL)
Hi! Could you send only the number? It should be in ng/mL, unit omitted.

Would you mind telling me what Cmax value was observed for C[C@@H]1[C@H](c2c(F)ccc(F)c2F)C[C@H](NC(=O)c2cnc3c(c2)C[C@@]2(C3)C(=O)Nc3ncccc32)C(=O)N1CC(F)(F)F [atogepant, Atogepant] ? 327
